Source of measurements: patent US20250296992A1

- systemTested: T1, human SLITRK6 on cells (human, UniProt Q9H5Y7 27-841)
- T1 construct: whole, on cells
- experimentDescription: flow cytometry on 293F-SLITRK6-C9 cells
In this section, each of the binders is paired with its reported EC50.
API: value field is a number in nM; no unit string.

Tell me the measured EC50 of Sirtratumab (antibody, V domains shown, Prior-art benchmark antibody; also called Sirtratuzumab) VH: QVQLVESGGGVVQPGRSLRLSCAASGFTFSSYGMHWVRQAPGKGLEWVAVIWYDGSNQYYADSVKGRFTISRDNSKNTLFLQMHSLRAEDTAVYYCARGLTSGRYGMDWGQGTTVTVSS VL: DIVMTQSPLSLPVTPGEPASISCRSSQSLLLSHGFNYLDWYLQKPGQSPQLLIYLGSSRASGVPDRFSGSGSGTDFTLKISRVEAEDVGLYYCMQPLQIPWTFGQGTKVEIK , please.
1.41

Tell me the measured EC50 of hu14G1-03-LD038 (8) (antibody, V domains shown, drug-linker LD038 on cysteines freed by TCEP reduction, DAR 8.0; positions not given, also called hu14G1-03 ADC) VH: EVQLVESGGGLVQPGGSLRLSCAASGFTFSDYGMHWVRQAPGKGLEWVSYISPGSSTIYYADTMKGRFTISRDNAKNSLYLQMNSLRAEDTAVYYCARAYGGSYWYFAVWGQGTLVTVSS VL: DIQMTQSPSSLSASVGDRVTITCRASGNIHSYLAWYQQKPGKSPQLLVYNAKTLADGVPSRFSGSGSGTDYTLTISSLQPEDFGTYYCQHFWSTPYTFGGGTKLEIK , please.
1.79

Tell me the measured EC50 of phA108 (antibody, V domains shown, From phage display, then full-length construction; Only the variable regions are tied to the name) VH: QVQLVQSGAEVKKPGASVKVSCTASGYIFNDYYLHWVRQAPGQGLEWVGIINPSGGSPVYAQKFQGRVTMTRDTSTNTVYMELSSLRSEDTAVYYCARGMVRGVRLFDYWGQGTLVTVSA VL: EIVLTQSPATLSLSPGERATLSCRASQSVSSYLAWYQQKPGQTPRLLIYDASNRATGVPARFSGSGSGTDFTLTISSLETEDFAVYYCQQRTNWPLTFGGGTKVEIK , please.
0.87
